Every entry's value here was drawn from PubChem BioAssay (NCI).

Assay: NCI Yeast Anticancer Drug Screen. Data for the mec2-1 strain (AID 157)
Details: S. cerevisiae mec2-1 strain, at 50.0 µM (retest, dose inferred, filed as 5.0), active compounds read high
Method: Growth inhibition of yeast strains with defined genetic alterations is measured as a screen for potential anti-cancer activity. Selected strains with alterations in DNA damage repair or cell cycle control were exposed to compounds and growth inhibition was measured relative to vehicle treated controls. The strain used in this assay is mec2-1
About 79,000 compounds went through this panel and 15% of them were active in at least one assay; those are over-represented in the sample as a whole. Calls of active or inactive are those of the source. No stated cut-off is given here; in the data, active means growth inhibition above about 70%; inactive means the rest.
Below: a set of entries, each annotated with reported growth inhibition.

Some compounds with recorded growth inhibition:
{"compound": "CC(=O)[C@]1(O)Cc2c(O)c3c(c(O)c2[C@@H](OC2CC(N)C(O)C(C)O2)C1)C(=O)c1c(OCc2ccccc2)cccc1C3=O (stereo not given in full)", "measured.quantity": "growth inhibition", "reported.value": "24% (inactive)"}
{"compound": "O=C(/C=N/O)Nc1cc(Cl)c(Cl)cc1Cl", "measured.quantity": "growth inhibition", "reported.value": "98% (active)"}
{"compound": "Nc1ccc2c(=S)c3ccccc3[nH]c2c1", "measured.quantity": "growth inhibition", "reported.value": "40% (inactive)"}
{"compound": "CC(=O)Oc1ccc(N2C(=O)C3c4[nH]c5ccccc5c4C4CCC(C(C)(C)C)CC4C3C2=O)cc1 (stereo not given)", "measured.quantity": "growth inhibition", "reported.value": "98% (active)"}
{"compound": "CCCCCCCCCCCCCC(=O)OC(C)CCC1CCCO1 (stereo not given)", "measured.quantity": "growth inhibition", "reported.value": "5% (inactive)"}
{"compound": "O=c1ccc(N=Nc2ccccc2)ccc1O", "measured.quantity": "growth inhibition", "reported.value": "99% (active)"}

Exercise: Query growth inhibition for `CN(N=O)c1ccc(/C=C/c2ccnc3ccccc23)cc1`
Solution: 32% (inactive)

Exercise: Query growth inhibition for `S=c1cn[nH]c2ccc(Br)cc12`
Solution: -9% (inactive)

Exercise: Query growth inhibition for Nc1nc(N)c2c(n1)CCC(S(=O)(=O)c1ccc3ccccc3c1)C2 (stereo not given)
Solution: 91% (active)

Exercise: Query growth inhibition for `Cc1cccc2c1N=C(C(F)(F)F)CC2=O`
Solution: 40% (inactive)

Exercise: Query growth inhibition for `N#Cc1sc2c(c1OC(=O)c1ccco1)c(=O)n(-c1ccccc1)c(=S)n2-c1ccccc1`
Solution: 82% (active)

---

Below: a set of entries, each annotated with reported growth inhibition.
assay: NCI Yeast Anticancer Drug Screen. Data for the rad18 strain (AID 177); conditions: S. cerevisiae rad18 mutant growth inhibition; at 3.7 µM; active compounds read high
The panel holds about 79,000 compounds, 15% with a hit somewhere; the sample as a whole holds those more often.
Lab book: enter the figure in %, no units written.

Some molecules with recorded growth inhibition:
{"molecule": "c1ccc(N2N=C3N(c4ccccc4)C2N3c2ccccc2)cc1", "measured.quantity": "growth inhibition", "reported.value": 10}
{"molecule": "O/N=C/C1c2ccccc2-c2ccccc21", "measured.quantity": "growth inhibition", "reported.value": 11}
{"molecule": "O=c1[nH]cc(/C=N\\Nc2ccccc2)c(=O)[nH]1", "measured.quantity": "growth inhibition", "reported.value": 28}
{"molecule": "Cc1ccc(N=Nc2ccc(O)c(C)c2)cc1", "measured.quantity": "growth inhibition", "reported.value": 27}
{"molecule": "N#CC(=C1C=CC(=NO)C=C1)c1ccccc1", "measured.quantity": "growth inhibition", "reported.value": 43}

Exercise: Query growth inhibition for `Cc1ccc(S(=O)(=O)N(C)c2ccc(Cl)cc2C2=NCCc3ccccc32)cc1`
Solution: -12

Exercise: Query growth inhibition for CCCCC(CC)C(=O)Oc1ccc(C(=O)c2ccccc2)c(O)c1 (stereo not drawn)
Solution: 0
